Reference source for all entries: patent US20240174690A1

Give measured solubility at 24 h for each item. Keep answers brief.
test_details: Solubility measurement (DMSO solution method), McIlvaine buffer pH 4.5 or 6.8
Assay type: physicochemical
condition_context: aqueous buffer, kinetic from dmso stock; McIlvaine buffer pH 4.5; DMSO stock diluted to 250 μM; 24 h shaking at ambient temperature; read-out: solubility pH 4.5
Please reply with the bare figure in µg/mL and do not write the unit itself.

Qu. Reported solubility at 24 h for C[C@H](O)Cn1ncc(-c2cc(O[C@@H](C)[C@@H]3CCCN3C)nc(-c3noc4c3CCC[C@@]43CCCc4sc(N)c(C#N)c43)n2)n1 [II-134] : what is it?
Ans. 116

Qu. Reported solubility at 24 h for C[C@H](Oc1cc(-c2ccc(N)nc2)nc(-c2noc3c2CCC[C@@]32CCCc3sc(N)c(C#N)c32)n1)[C@@H]1CCCN1C [II-101] : what is it?
Ans. 88

Qu. Reported solubility at 24 h for CO[C@@H]1C[C@@H]([C@H](C)Oc2cc(-c3ccn(C)n3)nc(-c3onc4c3CCC[C@@]43CCCc4sc(N)c(C#N)c43)n2)N(C)C1 [I-23] : what is it?
Ans. 106

Qu. Reported solubility at 24 h for C[C@H](Oc1cc(-n2ccc(C(=O)N[C@@H]3CCOC3)n2)nc(-c2noc3c2CCC[C@@]32CCCc3sc(N)c(C#N)c32)n1)[C@@H]1CCCN1C [II-192] : what is it?
Ans. 124

Qu. Reported solubility at 24 h for Cc1cn(C)nc1-c1cc(O[C@@H](C)[C@@H]2CCCN2C)nc(-c2noc3c2CCC[C@@]32CCCc3sc(N)c(C#N)c32)n1 [II-68] : what is it?
Ans. 79

Qu. Reported solubility at 24 h for C[C@H](Oc1cc(-n2cc3ccn(C4CCOCC4)c(=O)c3n2)nc(-c2noc3c2CCC[C@@]32CCCc3sc(N)c(C#N)c32)n1)[C@@H]1CCCN1C [II-206] : what is it?
Ans. 17

Qu. Reported solubility at 24 h for C[C@H](Oc1cc(-c2cncnc2)nc(-c2noc3c2CCC[C@@]32CCCc3sc(N)c(C#N)c32)n1)[C@@H]1CCCN1C [II-82] : what is it?
Ans. 102

Qu. Reported solubility at 24 h for C[C@H](Oc1cc(-n2ccsc2=O)nc(-c2noc3c2CCC[C@@]32CCCc3sc(N)c(C#N)c32)n1)[C@@H]1CCCN1C [II-135] : what is it?
Ans. 19

Qu. Reported solubility at 24 h for CO[C@H]1CCN(C)[C@@H]1[C@H](C)Oc1cc(-n2ccc(CC(=O)NC(C)C)n2)nc(-c2noc3c2CCC[C@@]32CCCc3sc(N)c(C#N)c32)n1 [II-183] : what is it?
Ans. 113

Qu. Reported solubility at 24 h for C[C@H](Oc1cc(-c2ccn3ncnc3c2)nc(-c2noc3c2CCC[C@@]32CCCc3sc(N)c(C#N)c32)n1)[C@@H]1CCCN1C [II-104] : what is it?
Ans. 3

Qu. Reported solubility at 24 h for C[C@H](Oc1cc(-n2cc3c(n2)CCN(C)C3)nc(-c2noc3c2CCC[C@@]32CCCc3sc(N)c(C#N)c32)n1)[C@@H]1CCCN1C [II-141] : what is it?
Ans. 123

Qu. Reported solubility at 24 h for CC(=O)N1CCN(c2cc(O[C@@H](C)[C@@H]3CCCN3C)nc(-c3noc4c3CCC[C@@]43CCCc4sc(N)c(C#N)c43)n2)CC12CC2 [II-178] : what is it?
Ans. 127

Qu. Reported solubility at 24 h for C[C@H](Oc1cc(N2CCC[C@H](O)C2)nc(-c2noc3c2CCC[C@@]32CCCc3sc(N)c(C#N)c32)n1)[C@@H]1CCCN1C [II-57] : what is it?
Ans. 109
